test system: ATP; experiment: switch fluorescence ratio, 500 uM ATP over buffer (Cy3 cluster intensity, sum of 5 cycles each) (fold (ratio)); higher = stronger signal-on switching upon ATP binding; sequences stand for … in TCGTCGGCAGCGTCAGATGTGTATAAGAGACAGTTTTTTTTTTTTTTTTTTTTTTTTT…TC; details: aptamer strand: ATP DNA aptamer (quencher-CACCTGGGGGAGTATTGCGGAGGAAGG + anchor), 100 nM annealed; ATP concentration: 500 uM;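 further: ATP exposure 15 min at 22 °C before imaging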
test.readout: switch fluorescence ratio
Just the number.

> print(dat)
   query.sequence  experimental.value
1      TGACTGGGCG                1.01
2      TTATTTTATT               0.998
3      GAACAAGGTG                1.14
4      TTTTGCTTTC                1.14
5      TGGGTGTATA                1.01

[in] Bench note: what switch fluorescence ratio did "TTAATTTGTC" show?
[out] 1.03

[in] Bench note: what switch fluorescence ratio did "TAGTCGAGGG" show?
[out] 0.971

[in] Bench note: what switch fluorescence ratio did "GATGAAAAAT" show?
[out] 0.975

[in] Bench note: what switch fluorescence ratio did "TAATAAAAGG" show?
[out] 0.998

[in] Bench note: what switch fluorescence ratio did "TTTTTTGCGT" show?
[out] 0.987

[in] Bench note: what switch fluorescence ratio did "AGTTTTTCGT" show?
[out] 1.01

[in] Bench note: what switch fluorescence ratio did "CGGCGAAGGG" show?
[out] 0.961

[in] Bench note: what switch fluorescence ratio did "GGTGTAATTG" show?
[out] 1

[in] Bench note: what switch fluorescence ratio did "GTACTTGGTC" show?
[out] 1.03

[in] Bench note: what switch fluorescence ratio did "ATAATTTGCC" show?
[out] 1.01

---

system: ATP; test: switch fluorescence ratio, 500 uM ATP over buffer (Cy3 cluster intensity, sum of 5 cycles each) (fold (ratio)); higher = stronger signal-on switching upon ATP binding; sequences stand for … in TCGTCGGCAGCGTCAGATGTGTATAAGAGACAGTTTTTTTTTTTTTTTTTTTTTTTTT…TC; settings: aptamer strand: ATP DNA aptamer (quencher-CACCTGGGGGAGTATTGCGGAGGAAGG + anchor), 100 nM annealed; ATP concentration: 500 uM;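 further: ATP exposure 15 min at 22 °C before imaging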
Binary classification by switch fluorescence ratio, with 1 as an inclusive lower bound for YES; all other cases are NO.

> print(dat)
   query.sequence  label.class
1      CGGGGAGACG           NO

[in] Is it the case that "TCCCCGTCTG" has switch fluorescence ratio reaching or exceeding 1?
[out] YES

[in] Is it the case that "CGAGCCTTAA" has switch fluorescence ratio reaching or exceeding 1?
[out] YES

---

As shown below, each of these sequences has a reported switch fluorescence ratio value.
tested on: ATP; test: switch fluorescence ratio, 500 uM ATP over buffer (Cy3 cluster intensity, sum of 5 cycles each) (fold (ratio)); higher = stronger signal-on switching upon ATP binding; sequences stand for … in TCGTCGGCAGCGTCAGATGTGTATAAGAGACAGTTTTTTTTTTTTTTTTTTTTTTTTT…TC; conditions: aptamer strand: ATP DNA aptamer (quencher-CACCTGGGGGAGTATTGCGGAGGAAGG + anchor), 100 nM annealed; ATP concentration: 500 uM;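 further: ATP exposure 15 min at 22 °C before imaging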
Just the number.

> print(dat)
   query.sequence               test.readout  experimental.value
1      TTGCTCGAAA  switch fluorescence ratio               0.987
2      TAAAGGGATC  switch fluorescence ratio               0.978
3      GATGAGATTT  switch fluorescence ratio               0.972

[in] Bench note: what switch fluorescence ratio did "TTTAAAGAGG" show?
[out] 0.981

[in] Bench note: what switch fluorescence ratio did "AATGATGCCT" show?
[out] 0.995

[in] Bench note: what switch fluorescence ratio did "GGGGGCCACG" show?
[out] 0.984

[in] Bench note: what switch fluorescence ratio did "TTGGGTCGAT" show?
[out] 0.985

[in] Bench note: what switch fluorescence ratio did "AGTTTCGCTA" show?
[out] 0.992

---

As shown below, each of these sequences has a reported switch fluorescence ratio value.
test system: ATP; assay: switch fluorescence ratio, 500 uM ATP over buffer (Cy3 cluster intensity, sum of 5 cycles each) (fold (ratio)); higher = stronger signal-on switching upon ATP binding; sequences stand for … in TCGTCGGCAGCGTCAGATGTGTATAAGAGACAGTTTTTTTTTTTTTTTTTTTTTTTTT…TC; conditions: aptamer strand: ATP DNA aptamer (quencher-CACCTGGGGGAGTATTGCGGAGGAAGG + anchor), 100 nM annealed; ATP concentration: 500 uM;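 further: ATP exposure 15 min at 22 °C before imaging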
Just the number.

> print(dat)
   query.sequence               test.readout  experimental.value
1      GGGACAGACC  switch fluorescence ratio                1.09
2      TATTTAGGTA  switch fluorescence ratio                1.02
3      TTTTATTGGG  switch fluorescence ratio               0.975
4      TCAGGTACAT  switch fluorescence ratio                1.07
5      CATTGTGTAT  switch fluorescence ratio               0.975

[in] Bench note: what switch fluorescence ratio did "TAATAAACAA" show?
[out] 1

[in] Bench note: what switch fluorescence ratio did "ACTTTAGATT" show?
[out] 1.04

[in] Bench note: what switch fluorescence ratio did "TAGCCTTACG" show?
[out] 1.12

[in] Bench note: what switch fluorescence ratio did "CTTAAATGTT" show?
[out] 1.01

[in] Bench note: what switch fluorescence ratio did "ATGCACAGAT" show?
[out] 0.994

[in] Bench note: what switch fluorescence ratio did "AGGATCAACG" show?
[out] 0.984

---

system: ATP; test: switch fluorescence ratio, 500 uM ATP over buffer (Cy3 cluster intensity, sum of 5 cycles each) (fold (ratio)); higher = stronger signal-on switching upon ATP binding; sequences stand for … in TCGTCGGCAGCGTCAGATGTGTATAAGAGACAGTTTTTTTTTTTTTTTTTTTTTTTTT…TC; details: aptamer strand: ATP DNA aptamer (quencher-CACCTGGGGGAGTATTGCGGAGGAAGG + anchor), 100 nM annealed; ATP concentration: 500 uM;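 further: ATP exposure 15 min at 22 °C before imaging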
test.readout: switch fluorescence ratio
Just the number.

> print(dat)
   query.sequence               test.readout  experimental.value
1      GAATGGTAGT  switch fluorescence ratio                1.02
2      TCGGCAGCGG  switch fluorescence ratio                1.01
3      GGGTGGTCAG  switch fluorescence ratio                1.01
4        GGGGGATT  switch fluorescence ratio               0.996
5      GGTGAGAGTT  switch fluorescence ratio               0.956

[in] Bench note: what switch fluorescence ratio did "TTTTTGTTAA" show?
[out] 1.01

[in] Bench note: what switch fluorescence ratio did "TTTCCAAAAT" show?
[out] 0.991

[in] Bench note: what switch fluorescence ratio did "TTAAATTTGG" show?
[out] 1.01

[in] Bench note: what switch fluorescence ratio did "TTGGTTTTTC" show?
[out] 1.01

[in] Bench note: what switch fluorescence ratio did "TACTGTTTTT" show?
[out] 0.983

[in] Bench note: what switch fluorescence ratio did "CTGTGATACT" show?
[out] 2.93

---

As shown below, each of these sequences has a reported switch fluorescence ratio value.
system: ATP; assay: switch fluorescence ratio, 500 uM ATP over buffer (Cy3 cluster intensity, sum of 5 cycles each) (fold (ratio)); higher = stronger signal-on switching upon ATP binding; sequences stand for … in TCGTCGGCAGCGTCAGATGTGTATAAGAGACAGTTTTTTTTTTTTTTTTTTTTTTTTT…TC; settings: aptamer strand: ATP DNA aptamer (quencher-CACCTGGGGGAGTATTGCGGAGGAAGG + anchor), 100 nM annealed; ATP concentration: 500 uM;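 further: ATP exposure 15 min at 22 °C before imaging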
Just the number.

[in] Bench note: what switch fluorescence ratio did "TTGCCGCACG" show?
[out] 1.15

[in] Bench note: what switch fluorescence ratio did "TCTCATAGGT" show?
[out] 1.04

[in] Bench note: what switch fluorescence ratio did "CTAGATTCGT" show?
[out] 0.996

---

system: ATP; test: switch fluorescence ratio, 500 uM ATP over buffer (Cy3 cluster intensity, sum of 5 cycles each) (fold (ratio)); higher = stronger signal-on switching upon ATP binding; sequences stand for … in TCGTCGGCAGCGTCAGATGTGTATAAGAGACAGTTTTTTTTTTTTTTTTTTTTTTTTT…TC; details: aptamer strand: ATP DNA aptamer (quencher-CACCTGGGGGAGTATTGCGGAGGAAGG + anchor), 100 nM annealed; ATP concentration: 500 uM;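 further: ATP exposure 15 min at 22 °C before imaging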
test.readout: switch fluorescence ratio
Just the number.

> print(dat)
   query.sequence  experimental.value
1      CTCTTTGCTT                   1

[in] Bench note: what switch fluorescence ratio did "GCTTTATTTA" show?
[out] 0.992

[in] Bench note: what switch fluorescence ratio did "GCAGTGGGTA" show?
[out] 0.978
